B1: TPR t1 (parent)
chain: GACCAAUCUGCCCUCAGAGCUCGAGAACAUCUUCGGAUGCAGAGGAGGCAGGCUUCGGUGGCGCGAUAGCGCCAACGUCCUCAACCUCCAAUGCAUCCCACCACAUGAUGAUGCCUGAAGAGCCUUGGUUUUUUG

variants of: B1; assay: polymerase ribozyme fitness, log enrichment relative to wild type (log ratio); higher = more active; in vitro selection for triplet polymerase activity
Entry flag: yes if polymerase ribozyme fitness (log ratio) reaches -5; no if it does not.

GACCAAUGUGCCCUCAGAGGUCGAGAACAUCUUCGGAUGGAGAGGAGGCAGGCUUCGGUGGCGCGAUAGCGCCAACGUCCUCAACCUCCAAUGCACCCCACCACAUGAUGAAGCCUGAAGAGCCUUGGUUUUUUG [C8G C20G C40G U96C U112A] :: no
GACCAAUCUGCCCUCAGAGCUCGAGAACAUCUUCGGAUGCAGAGGAGGCAGGCUUGGGUGGCGCGAUAGCGCCAGCGUCCUCAACCUCCAAUGCAUCCCACCACAUGACGAUGCCUGAAGAGCCUUGGUUUUUUG [C56G A75G U109C] :: no
GACCAAUCUGCCCUCAGAGCUCGAGAACAUCUUCGGAUGCAGAGGAGGCAGGCUUCGGUGGCGCGAUAACGCCAACGUCCUCAAACUCCAAUGCAUCCCACCACAAGAUGAUGCCUGAAGAGCCAUGGUUUUUUG [G69A C85A U106A U125A] :: no
GACCAAUAUGCCCUCAGAGCUCGAGAACAUCUUCGGAUGCAGAGGAGGCAGGCUUCGGUGGUGCGAUAGCGCCCACGUCCUCAACCUCAAAUGCAUCCCACCAAAUGAUGACGCCUGAAGAGCCUUGGUUUUUUG [C8A C62U A74C C89A C104A U112C] :: yes
GACCAAUCUGCCCUCAGAGCUCGAGAACAUCUUCGGAUGCAGAGGAGGCAGGCUUCGGGGGCGCGAUAGCGCCAACGUCCUCAAUCUCCAAUGCAUCCCACCACAUGAUGAUGCAUGAAGAGCCUUGGUUUUUUG [U59G C85U C115A] :: yes

Enquiry: Evaluate GACCAAUCUGCCCUCAGAGCUCGAGAACAUCUUCGGAUGCAGAGGAGGCAGGCUUAGGUGGCGCGAUAGUGCCAACGUCCUCAACCUCCAAGGCAUCCCACCACAUGAUGAUGCCUGAAGAGCCUUGGUUUUUUG [C56A C70U U92G] : polymerase ribozyme fitness (log ratio) at minimum -5?
Return: yes

Enquiry: Same again, this time with GCCAAAUCUGCCCUCAGAGCUCGAGAACAUCUUCGGAUGCAGAGGAGGCAGGCUUCGGUGGCGCGAUAGCGCCAACGUCCUCAACCUCCAAUGCAUCCCACCACAUGAUGAUGCCUGAAGAGCCUUGGUUUUUUG [A2C C4A]
Return: yes

Enquiry: Same again, this time with GACCAAUCUGCCCUCAGAGCUCGAGAACAUCUUCGGAUGCAGAGGAGGCAGGCUUCGGUGGCGCGAUAGCGCCAACGUCCUCAACCUCCAAUGCAUCCUACCACAUGAUGAUGCCUGAAGAGCCUUGGUUUAUUG [C99U U132A]
Return: yes
